Recorded inhibition for the following compounds
assay_explanation: growth suppression of yeast trafficking mutant, preliminary HTS, modulators of trafficking downstream of Golgi apparatus project, 1536-format plate, OD 615 nm (AID 637)
test_conditions: yeast transport mutant growth, absorbance 615 nm, 18 h; stronger effect = higher value
Active and inactive are the calls of the source. No stated cut-off is given here; in the data, active means inhibition above about 30%; inactive means the rest.

[[record]]
compound = "O=C(Nc1ccc2c(c1)OCO2)C1CCCN1C(=O)Nc1ccccc1F (stereo unspecified)"
property_measured = "inhibition"
measured_result = "-3.97% (inactive)"

[[record]]
compound = "CCOC(=O)CSc1nc(C)c(C(=O)OCC)s1"
property_measured = "inhibition"
measured_result = "-4.68% (inactive)"

[[record]]
compound = "COc1ccc2[nH]c(=O)c(CN(CC3CCCO3)C(=O)Nc3ccc(F)cc3)cc2c1 (stereo unspecified)"
property_measured = "inhibition"
measured_result = "2.46% (inactive)"

[[record]]
compound = "CCOC(=O)CC1(CC(=O)OCC)NC(=O)c2c(C)sc(C(=O)OCC)c2N1"
property_measured = "inhibition"
measured_result = "6.39% (inactive)"

[[record]]
compound = "NC(=O)c1c(NC(=O)CSc2nnc(-c3ccco3)n2-c2ccccc2)sc2c1CCC2"
property_measured = "inhibition"
measured_result = "35.7% (active)"

[[record]]
compound = "CCOc1ccc(OCc2ccc(C(=O)Nc3cccc(C)n3)o2)cc1"
property_measured = "inhibition"
measured_result = "-1.61% (inactive)"


Sample `COC(=O)c1ccccc1S(=O)(=O)NC(=O)c1ccccc1` — what was its inhibition? -3.81% (inactive)

Entry `CC(C)=CC(=O)Nc1ccc(Br)cc1` has what inhibition? -9.35% (inactive)

Which inhibition reading was recorded for the compound `c1ccc(N=P(c2nc3ccccc3o2)(N2CCOCC2)N2CCOCC2)cc1` ? 7.26% (inactive)

Entry `COc1ccccc1NC(=O)c1nnn(CC(=O)Nc2ccccc2)c1N` : reported inhibition = ? -1.31% (inactive)

Return reported inhibition; argument: `COC(=O)c1ccc(-c2sc3nc(N4CCOCC4)c4c(c3c2N)CCCC4)o1` 27.3% (inactive)

---

Measured Her2 level, listed per entry.
assayed_target: Receptor tyrosine-protein kinase erbB-2 (Homo sapiens)
assay_explanation: reducers of endogenous Her2 protein level, primary screen, SKBR3 breast tumor cells, AlphaScreen, ATP viability (AID 461);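 on Her2 level: lower value means less Her2 protein in the cells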;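 on viability: percent of carrier control wells set as 100% viability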
test_conditions: 18-24 h, at 10 µM, stronger effect = lower value
Dear colleague, please return just the value in %, with no unit written.

// below: answered compounds
[[record]]
compound = "O=C(c1ccc(Cl)cc1)C1CCN(C(=O)NC2CCCCC2)CC1"
u = "%"
measured_result = 92

[[record]]
compound = "COc1ccc(CC(=O)N2CCOCC2)cc1OC"
u = "%"
measured_result = 99

[[record]]
compound = "CCOCCCNC(=O)C1CCN(C(=O)Nc2ccc(Cl)cc2)CC1"
u = "%"
measured_result = 92.5

[[record]]
compound = "O=C(CCCC(=O)OCC(=O)NC1CCCC1)Nc1ccccn1"
u = "%"
measured_result = 88

[[record]]
compound = "CCOc1cc(-c2nc(-c3ccccc3OC)no2)cc(OCC)c1OCC"
u = "%"
measured_result = 96.5

[[record]]
compound = "COCCn1nnnc1C(c1cc2cc(OC)ccc2[nH]c1=O)N1CCC(Cc2ccccc2)CC1 (stereo unspecified)"
u = "%"
measured_result = 80

[[record]]
compound = "Cc1ccc(CN2C(=O)CCC2C(=O)NC2CCCC2)cc1 (stereo unspecified)"
u = "%"
measured_result = 95.5

[[record]]
compound = "C=CCN1C(=O)C2(c3ccccc31)C1CCCC=C1C(C#N)=C(N)C2(C#N)C#N (stereo unspecified)"
u = "%"
measured_result = 82

[[record]]
compound = "Cc1ccc(C)c(N2CCN(C(=O)C3CCN(S(=O)(=O)c4c(C)noc4C)CC3)CC2)c1"
u = "%"
measured_result = 72

[[record]]
compound = "COc1ccc(-c2noc(COc3ccc4ccccc4c3Br)n2)cc1OC"
u = "%"
measured_result = 104


# Her2 level lookup, item `CCOC(=O)CNS(=O)(=O)c1c(C)noc1C` 104

---

assay_explanation: reducers of endogenous Her2 protein level, primary screen, SKBR3 breast tumor cells, AlphaScreen, ATP viability (AID 461);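 on viability: percent of carrier control wells set as 100% viability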
test_conditions: 18-24 h, measured here: SKBR3 viability, ATP luminescence, at 10 µM
property_measured: viability (%)
Express it in %; write the number only.

[[record]]
compound = "Cc1cc(C)nc(NC(=O)c2ccc(OC(C)C)cc2)n1"
measured_result = 102

[[record]]
compound = "CCCCOc1ccc(NC(=O)Cn2c(=O)ccc3c(C)cc(C)nc32)cc1"
measured_result = 102

[[record]]
compound = "CCCn1nnnc1SCC(=O)c1ccc2c(c1)OCCO2"
measured_result = 90


Looking for the measured viability of `O=C(CSc1nnc(-c2cccs2)o1)N1CCOCC1` , can you help? 107

For the compound shown here, `Cc1cc(C(=O)NCCN2CCN(c3cccc(Cl)c3)CC2)n(-c2ccccc2)n1` , give the reported viability. 98

Recorded viability of COc1ccccc1C1c2c(oc3ccc(Cl)cc3c2=O)C(=O)N1c1cc(C)on1 (stereo unspecified) , please. 86.5

Find the recorded viability belonging to `O=c1[nH]cnc2c1C1(CCCC1)Cc1ccccc1-2` and report it. 95.5

I'd like to know its viability. The compound in question is `CCOc1ccc2cc(C#N)c(SCC(=O)N3CCCC3)nc2c1` 71.5

// returns reported viability for input `Cn1c(SCC(=O)N2CCN(c3cccc(Cl)c3)CC2)nnc1-c1ccncc1` 84

What value of viability has been reported for the following compound? `Cc1ccc(Cn2nnc3c(=O)[nH]c(C4CCN(C(=O)c5cccs5)CC4)nc32)cc1` 90.5

GET /values?readout=viability&item= CCOC(=O)c1ccc(CC2S/C(=C(\C#N)C(C)=O)NC2=O)cc1 (stereo unspecified) 91.5

Item under review: Cc1ccc(C(C)n2cc(C(=O)NCCN3CCN(C)CC3)nn2)cc1 (stereo unspecified) . Reported viability? 106

Return reported viability; argument: `Cc1cccc(N(CC(N)=O)S(C)(=O)=O)c1C` 102

Please look up its viability: `O=C1CCNc2cc3ccccc3cc21` 73.5

Could you share which viability value was measured for `CCN(CC)c1ccc(NC(=O)c2[nH]c(C)c(C(C)=O)c2C)c(C)c1` ? 92.5

---

assay_explanation: SK-BR-3 cell growth inhibitors, pilot screen, 24 h, human (AID 572);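 further: compound exposure lasted between 18 and 24 h rather than exactly 24 h; 100% = carrier-treated control wells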
test_conditions: SK-BR-3 viability, CellTiter-Glo luminescence, at 10 µM, stronger effect = lower value
Below is a list of entries, each paired with its recorded viability value.
Numeric only. Scale: %

Check out these entries, answers already filled in.
[[record]]
compound = "O=C(Cn1c(SCC(=O)N2CCCc3ccccc32)nc2ccccc21)N1CCCC1"
property_measured = "viability"
measured_result = 94

[[record]]
compound = "Cc1cccn2cc(-c3ccccc3)nc12"
property_measured = "viability"
measured_result = 78

[[record]]
compound = "CC(=O)Nc1ccc(NS(=O)(=O)C(F)(F)F)cc1"
property_measured = "viability"
measured_result = 82.5

[[record]]
compound = "CN(c1ccccc1)S(=O)(=O)c1ccc(C(=O)OCC(=O)N2CCOCC2)cc1"
property_measured = "viability"
measured_result = 106

[[record]]
compound = "Cc1occc1C(=O)Nc1ccccc1NC(=O)c1ccoc1C"
property_measured = "viability"
measured_result = 96.5


Now look at this entry.
For `CCN1CCN(c2c(Cl)cccc2NC(=O)c2ccco2)CC1` , what is its reported viability? 67.5

---

assayed_target: Receptor tyrosine-protein kinase erbB-2 (Homo sapiens)
assay_explanation: reducers of endogenous Her2 protein level, primary screen, SKBR3 breast tumor cells, AlphaScreen, ATP viability (AID 461);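 on Her2 level: lower value means less Her2 protein in the cells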;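 on viability: percent of carrier control wells set as 100% viability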
test_conditions: 18-24 h, at 10 µM, stronger effect = lower value
property_measured: Her2 level (%)
Reply numerically in %, unit not repeated.

Example entries begin here.
[[record]]
compound = "CC(=O)Nc1ccc(NS(=O)(=O)C(F)(F)F)cc1"
measured_result = 97

[[record]]
compound = "COc1ccc(-c2cc(C(=O)NCCc3ccccc3)no2)cc1OC"
measured_result = 85.5

[[record]]
compound = "Cc1cccc(NS(=O)(=O)c2cc(C(=O)OCC(=O)Nc3cc(C)on3)ccc2C)c1"
measured_result = 86


What value of measured Her2 level is listed for `O=C(Nc1nccs1)NC(C(F)(F)F)C(F)(F)F` ? 87.5

What does the data say about its Her2 level? Entry: `COc1ccc(-c2nnc(SCC(=O)c3cc(C)n(Cc4cccs4)c3C)o2)cc1` 114

Name the recorded Her2 level for COc1cccc(C2C(C#N)=C(N)OC3=C2C(=O)CCC3)c1OC(=O)c1ccco1 (stereo not given) . 84

Her2 level for CCOC(=O)C1=C(O)C(=O)N(c2ccc(S(N)(=O)=O)cc2)C1c1ccccc1 (stereo not given) ? 110

---

assay_explanation: 384-well plate pilot, post-Golgi transport modulator project, inhibition of yeast transport mutant growth (AID 636)
test_conditions: absorbance 615 nm, about 18 h, stronger effect = higher value
property_measured: inhibition (%)
# value in %; strip the unit string

Worked cases, inhibition given:
[[record]]
compound = "Cc1c(C(=O)NCCC2=CCCCC2)oc2ccc(S(=O)(=O)N3CCC4(CC3)OCCO4)cc12"
measured_result = -10.8

[[record]]
compound = "COc1ccc(-n2c(SCC#N)nc3ccccc3c2=O)cc1"
measured_result = 5.06

[[record]]
compound = "COC(=O)c1cc(OC)c(OCc2cc(C(=O)OC)oc2C)c(OC)c1"
measured_result = -9.32

[[record]]
compound = "COc1ccc(C(=O)N2CCN(S(=O)(=O)c3cc(Cl)ccc3OC)CC2)cc1"
measured_result = -2.37

[[record]]
compound = "O=C(Cn1cnc2ccccc2c1=O)NCCC(=O)N1CCN(c2ccccc2)CC1"
measured_result = -3.25


inhibition lookup needed for O=C(O)CC1NC(=O)N(c2ccccc2)C1=O (stereo unspecified) , thanks. -5.33
